From: PubChem BioAssay (NCI)

- Tested on: SF-295 CNS
- RUN_DESCRIPTION: NCI tumour cell line growth inhibition, 48 h
VALUE_KIND: TGI (µM)
Expressed in µM, but write only the number.

Completed entries (count: 3):
INSERT INTO results (compound, system, readout_units, reported) VALUES
  ('CC(C)c1ccc2nc3ccc(C(=O)NCCN4CCN(c5ccccc5)CC4)cn3c(=O)c2c1', 'SF-295 CNS', 'µM', 4.91),
  ('Cc1ccc(NC(=O)c2cc3ccccc3cc2O)c(C)c1.Cc1ccc(NC(=O)c2cc3ccccc3cc2[O-])c(C)c1.[Ni+2]', 'SF-295 CNS', 'µM', 14.3),
  ('CC1=CC(=O)c2ccc(C)cc2C1=O', 'SF-295 CNS', 'µM', 31.6);

Attention now turns to another entry.
Looking up COc1ccc(C2=NN(C(=O)c3cccnc3)C(O)(c3cc(F)c(Cl)cc3Cl)C2)cc1OC (centres undefined) , I found its TGI recorded as 39
